measured on: EGFR wildtype (WT) (Homo sapiens)
Sequence (P00533 25-1210): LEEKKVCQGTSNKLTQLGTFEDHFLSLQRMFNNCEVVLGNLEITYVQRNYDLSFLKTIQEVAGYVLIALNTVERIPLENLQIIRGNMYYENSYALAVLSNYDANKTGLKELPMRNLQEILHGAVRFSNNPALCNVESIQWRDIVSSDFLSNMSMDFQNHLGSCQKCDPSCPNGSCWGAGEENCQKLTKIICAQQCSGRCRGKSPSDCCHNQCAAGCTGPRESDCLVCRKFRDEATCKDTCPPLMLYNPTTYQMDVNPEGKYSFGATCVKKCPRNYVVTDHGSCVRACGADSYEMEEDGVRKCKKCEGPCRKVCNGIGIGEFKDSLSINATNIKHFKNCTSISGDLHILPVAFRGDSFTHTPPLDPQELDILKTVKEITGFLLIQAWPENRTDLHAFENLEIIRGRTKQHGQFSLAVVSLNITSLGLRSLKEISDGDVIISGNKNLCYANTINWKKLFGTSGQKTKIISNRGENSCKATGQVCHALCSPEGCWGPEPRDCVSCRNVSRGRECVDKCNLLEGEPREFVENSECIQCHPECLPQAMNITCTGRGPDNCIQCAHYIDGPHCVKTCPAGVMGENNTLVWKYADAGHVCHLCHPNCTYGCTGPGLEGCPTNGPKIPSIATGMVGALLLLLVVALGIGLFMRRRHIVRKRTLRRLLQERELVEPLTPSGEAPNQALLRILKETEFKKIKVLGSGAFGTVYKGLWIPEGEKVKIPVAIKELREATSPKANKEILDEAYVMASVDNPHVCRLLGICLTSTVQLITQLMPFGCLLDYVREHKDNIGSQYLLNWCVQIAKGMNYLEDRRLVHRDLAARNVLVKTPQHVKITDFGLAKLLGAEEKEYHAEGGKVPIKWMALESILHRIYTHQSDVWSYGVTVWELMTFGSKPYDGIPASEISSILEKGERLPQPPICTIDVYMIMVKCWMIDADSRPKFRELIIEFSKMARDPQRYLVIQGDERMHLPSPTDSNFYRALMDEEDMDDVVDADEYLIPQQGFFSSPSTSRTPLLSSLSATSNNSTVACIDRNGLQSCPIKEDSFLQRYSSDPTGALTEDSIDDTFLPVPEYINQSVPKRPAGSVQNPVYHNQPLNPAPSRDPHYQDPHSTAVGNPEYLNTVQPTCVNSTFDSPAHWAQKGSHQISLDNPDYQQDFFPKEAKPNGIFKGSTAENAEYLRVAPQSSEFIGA
protocol notes: Biochemical EGFR kinase assay (Lance Ultra TR-FRET), wildtype
condition: Km ATP; read-out: IC50 WT (nM) Km ATP
quantity name: IC50 (nM)
Could you give me the number in nM? Just the number is fine.

Exercise: Find IC50 (EGFR wildtype (WT) (Homo sapiens)) for the entry CN(C)CC1(C)CCC(Nc2cc(Nc3ccnc(-c4cnn(S(=O)(=O)C5CC5)c4)n3)ncc2-c2ccn(C(F)F)n2)CC1 (stereo not shown) [Example 207]
Solution: 15.3

Exercise: Same for CN1CCN(c2nc(-c3cnc(Nc4ccnc(-c5cnn(S(=O)(=O)C6CC6)c5)n4)cc3N[C@H]3CC[C@@](C)(O)CC3)cs2)CC1 [Example 121]
Solution: 12.8

Exercise: Again, but for C=CCn1cc(-c2nccc(Nc3cc(N[C@H]4CC[C@@](C)(O)CC4)c(-c4ccn(C(F)F)n4)cn3)n2)cn1 [Example 116]
Solution: 77.2

Exercise: // same read-out, input: COCn1ccc(-c2cnc(Nc3ccnc(-c4cnn(S(=O)(=O)C5CC5)c4)n3)cc2NC(C)C)n1 [Example 303]
Solution: 1.7

Exercise: Request: CN(C)S(=O)(=O)n1cc(-c2nccc(Nc3cc(N[C@H]4CC[C@@](C)(O)CC4)c(-c4cc(C(F)(F)F)n(C)n4)cn3)n2)cn1 [Example 330]
Solution: 65.3

Exercise: Also check Cn1ccc(-c2cnc(Nc3ccnc(-c4cnn(S(=O)(=O)C5CC5)c4)n3)cc2N[C@H]2CC[C@](O)(CO)CC2)n1 [Example 221]
Solution: 4.9

Exercise: Try this molecule too: C[C@]1(O)CC[C@@H](Nc2cc(Nc3ccnc(-c4cnn(S(=O)(=O)C5CC5)c4)n3)ncc2-c2ccn(CCC(F)(F)F)n2)CC1 [Example 295]
Solution: 3.8

Exercise: Same thing, different molecule: O=S(=O)(C1CC1)n1cc(-c2nccc(Nc3cc(N[C@H]4CCC[C@H](CO)C4)c(-c4ccn(CC(F)(F)F)n4)cn3)n2)cn1 [Example 271]
Solution: 50.1

Exercise: Further, for OC1CCN(Nc2cc(Nc3ccnc(-c4cnn(CC(F)F)c4)n3)ncc2-c2ccn(C(F)F)n2)CC1 [Example 162] ?
Solution: 271

Exercise: Next molecule up: CC(C)(O)[C@H]1CC[C@@H](Nc2cc(Nc3ccnc(-c4cnn(S(=O)(=O)C5CC5)c4)n3)ncc2-c2ccn(CCC(F)(F)F)n2)CC1 [Example 300]
Solution: 44.8

Exercise: Record: O=S(=O)(C1CC1)n1cc(-c2nccc(Nc3cc(NC[C@H]4C[C@H](CO)C4)c(-c4ccn(C(F)F)n4)cn3)n2)cn1 [Example 189]
Solution: 20.1

Exercise: Repeat for the following molecule: O=S(=O)(C1CC1)n1cc(-c2nccc(Nc3cc(N[C@H]4CC[C@@H](CN5CCC5)CC4)c(-c4ccn(CC(F)(F)F)n4)cn3)n2)cn1 [Example 272]
Solution: 1.4

Exercise: Input CN(C)C(=O)C[C@H]1CC[C@@H](Nc2cc(Nc3ccnc(-c4cnn(S(=O)(=O)C5CC5)c4)n3)ncc2-c2ccn(C)n2)CC1 [Example 236]
Solution: 0.5

Source of measurements: patent US12258327B2
